Target: UniProt:P49840
Sequence (P49840 whole entry, canonical isoform): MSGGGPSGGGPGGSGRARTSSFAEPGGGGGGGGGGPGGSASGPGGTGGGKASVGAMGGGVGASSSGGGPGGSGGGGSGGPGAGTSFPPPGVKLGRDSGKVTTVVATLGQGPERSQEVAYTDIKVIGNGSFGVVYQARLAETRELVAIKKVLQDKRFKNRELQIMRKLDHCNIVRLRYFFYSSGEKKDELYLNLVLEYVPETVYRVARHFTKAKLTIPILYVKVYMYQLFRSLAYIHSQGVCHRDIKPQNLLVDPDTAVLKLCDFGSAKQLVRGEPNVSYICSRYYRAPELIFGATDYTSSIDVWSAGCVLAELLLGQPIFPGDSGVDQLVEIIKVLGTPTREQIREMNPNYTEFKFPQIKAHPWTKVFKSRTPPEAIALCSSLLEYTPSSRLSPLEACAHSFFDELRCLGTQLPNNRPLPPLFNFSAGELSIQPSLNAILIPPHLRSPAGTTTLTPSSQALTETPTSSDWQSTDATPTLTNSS
Assay: Enzyme Inhibition Assay: The inhibitory activities of compounds of the invention against the GSK 3α enzyme isoform (Invitrogen), are evaluated by determining the level of activation/phosphorylation of the target peptide. The GSK3-α protein (500 ng/mL, 2.5 μL) is mixed with the test compound (2.5 μL at either 4 μg/mL, 0.4 μg/mL, 0.04 μg/mL, or 0.004 μg/mL) for 2 hr at RT. The FRET peptide (8 μM, 2.5 μL), which is a phosphorylation target for GSK3α, and ATP (40 μM, 2.5 μL) are then added to the enzyme/compound mixture and the resulting mixture incubated for 1 hr. Development reagent (protease, 5 μL) is added for 1 hr prior to detection in a fluorescence microplate reader (Varioskan® Flash, ThermoFisher Scientific).In all cases, the site-specific protease cleaves non-phosphorylated peptide only and eliminates the FRET signal. Phosphorylation levels of each reaction are calculated using the ratio of coumarin emission (donor) over fluorescein emission (acceptor), for which high ratios indicate […] phosphorylation levels.
test readout: pIC50
Quick note: pIC50 values are minus log10 of concentrations in mol/L.

IN: State its pIC50: COc1cc(N=S(C)(C)=O)cc(Nc2nccc(Oc3ccc(NC(=O)Nc4cc(C(C)C)nn4-c4ccc(C)cc4)c4ccccc34)n2)c1
OUT: 6.08
